For each record, write down the corresponding pIC50.
# Tested on: CCRF-CEM
# EXPERIMENT_SUMMARY: Cytotoxicity against Homo sapiens (human) CEM cells after 5 days celltiter 96 aqueous assay
# Type: cell-based
# DETAILS: 120 h
In simple prose, pIC50 is minus the logarithm base ten of a concentration in moles per litre.

What value of measured pIC50 is listed for O=C(/C=C/c1ccc(N2CCCCC2)cc1)c1sccc1Cl ?
4.91

State the recorded pIC50 for this entry: O=C(/C=C/c1ccc(N2CCCCC2)cc1)c1ccsc1
4.49

What pIC50 value was documented for this compound, Cc1ccsc1C(=O)/C=C/c1ccc(N2CCCCC2)cc1 ?
5.00

// query pIC50 value for entry O=C(/C=C/c1ccc(N2CCCCC2)cc1)c1cccs1
4.94

Quick one: pIC50 for Ic1ccc(C2=NNC(c3ccc(N4CCCCC4)cc3)C2)s1 (stereo unspecified) ?
4.44

// data source = ChEMBL document CHEMBL3044853
